Each entry below carries its reported Ki.
- Target of assay: Neuropeptide Y receptor type 1 (Homo sapiens)
- Sequence (P25929 whole entry): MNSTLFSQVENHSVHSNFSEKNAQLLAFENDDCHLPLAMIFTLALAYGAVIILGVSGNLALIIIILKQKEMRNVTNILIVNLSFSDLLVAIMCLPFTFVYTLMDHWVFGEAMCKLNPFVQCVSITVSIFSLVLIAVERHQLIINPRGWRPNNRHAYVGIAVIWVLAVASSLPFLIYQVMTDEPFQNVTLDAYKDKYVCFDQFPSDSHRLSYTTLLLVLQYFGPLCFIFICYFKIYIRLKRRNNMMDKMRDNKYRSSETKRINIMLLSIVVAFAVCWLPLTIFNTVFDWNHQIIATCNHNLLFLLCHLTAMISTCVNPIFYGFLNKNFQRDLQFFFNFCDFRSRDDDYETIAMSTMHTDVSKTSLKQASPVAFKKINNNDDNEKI
- Protocol description: Displacement of [3H]UR-MK136 from human NPY Y1 receptor expressed in human MCF7 cells by liquid scintillation counting
- Assay type: cell-based
Numbered stars: 1 amine (or outer) side, 2 acyl side, 3 side chain; on linkers, the order of the positions; unused ones are H or OH. Bridge positions count the residues as written; N and C are the ends. Peptide text beside a SMILES is read from it. I, II: the chains in the order shown. Suberoyl = O=C(CCCCCCC(=O)[*:2])[*:1]
Recorded metric: Ki (µM)

[[record]]
compound = "CC(C)C[C@H](NC(=O)[C@H](CCCNC(=N)N)NC(=O)[C@H](Cc1ccc(O)cc1)NC(=O)CCCCCCC(=O)N[C@@H](Cc1ccc(O)cc1)C(=O)N[C@@H](CCCNC(=N)N)C(=O)N[C@@H](CC(C)C)C(=O)N[C@@H](CCCNC(=N)N)C(=O)N[C@@H](Cc1ccc(O)cc1)C(N)=O)C(=O)N[C@@H](C)C(=O)N[C@@H](Cc1ccc(O)cc1)C(N)=O (I: YRLAY-NH2 / II: YRLRY-NH2; linker I:N-II:N via Suberoyl)"
target_of_assay = "Neuropeptide Y receptor type 1 (Homo sapiens)"
experimental_result = 1.6

[[record]]
compound = "CC(C)C[C@H](NC(=O)[C@H](CCCNC(=N)N)NC(=O)[C@H](Cc1ccc(O)cc1)NC(=O)CCCCCCC(=O)N[C@@H](Cc1ccc(O)cc1)C(=O)N[C@@H](CCCNC(=N)N)C(=O)N[C@@H](CC(C)C)C(=O)N[C@@H](CCCNC(=N)N)C(=O)N[C@@H](Cc1ccc(O)cc1)C(N)=O)C(=O)N[C@@H](CCCNC(=N)N)C(=O)N[C@@H](Cc1ccc(O)cc1)C(N)=O (I: YRLRY-NH2 / II: YRLRY-NH2; linker I:N-II:N via Suberoyl)"
target_of_assay = "Neuropeptide Y receptor type 1 (Homo sapiens)"
experimental_result = 0.72

[[record]]
compound = "CCC(=O)N[C@@H](CCCC[C@H](N)C(=O)N[C@@H](Cc1ccc(O)cc1)C(=O)N[C@@H](CCCNC(=N)N)C(=O)N[C@@H](CC(C)C)C(=O)N[C@@H](CCCNC(=N)N)C(=O)N[C@@H](Cc1ccc(O)cc1)C(N)=O)C(=O)N[C@@H](Cc1ccc(O)cc1)C(=O)N[C@@H](CCCNC(=N)N)C(=O)N[C@@H](CC(C)C)C(=O)N[C@@H](CCCNC(=N)N)C(=O)N[C@@H](Cc1ccc(O)cc1)C(N)=O"
target_of_assay = "Neuropeptide Y receptor type 1 (Homo sapiens)"
experimental_result = 0.4


---

- Target of assay: Neuropeptide Y receptor type 4 (Homo sapiens, UniProt P50391)
- Sequence (P50391 whole entry): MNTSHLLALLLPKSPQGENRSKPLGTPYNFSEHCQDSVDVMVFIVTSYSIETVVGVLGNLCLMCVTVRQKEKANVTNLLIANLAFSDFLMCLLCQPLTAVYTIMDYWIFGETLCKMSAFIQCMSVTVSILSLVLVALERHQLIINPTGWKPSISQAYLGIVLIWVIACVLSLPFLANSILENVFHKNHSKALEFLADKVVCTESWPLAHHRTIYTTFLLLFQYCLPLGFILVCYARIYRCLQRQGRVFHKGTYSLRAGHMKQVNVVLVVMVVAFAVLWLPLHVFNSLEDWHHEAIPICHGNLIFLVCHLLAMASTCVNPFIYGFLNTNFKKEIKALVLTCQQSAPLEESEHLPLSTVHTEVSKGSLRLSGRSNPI
- Protocol description: Intrinsic activity at human NPY Y4 receptor expressed in CHO cells co-expressing Gqi5-mtAEQ assessed as induction of calcium mobilization by aequorin luminescence assay relative to pancreatic polypeptide
- Type: functional, cell-based
Numbered stars: 1 amine (or outer) side, 2 acyl side, 3 side chain; on linkers, the order of the positions; unused ones are H or OH. Bridge positions count the residues as written; N and C are the ends. Square brackets hold non-standard residues; d marks the D form. Peptide text beside a SMILES is read from it. I, II: the chains in the order shown. X2 = NCCCCNC(=O)/N=C(\N)NCCC[C@H](N[*:1])C(=O)[*:2]; Suberoyl = O=C(CCCCCCC(=O)[*:2])[*:1]
Recorded metric: Intrinsic activity

[[record]]
molecule = "CC(C)C[C@H](NC(=O)[C@H](CCCNC(=N)N)NC(=O)[C@H](Cc1ccc(O)cc1)NC(=O)CCCCCCC(=O)N[C@@H](Cc1ccc(O)cc1)C(=O)N[C@@H](CCCN/C(N)=N/C(=O)NCCCCN)C(=O)N[C@@H](CC(C)C)C(=O)N[C@@H](CCCNC(=N)N)C(=O)N[C@@H](Cc1ccc(O)cc1)C(N)=O)C(=O)N[C@@H](CCCNC(=N)N)C(=O)N[C@@H](Cc1ccc(O)cc1)C(N)=O (I: Y[X2]LRY-NH2 / II: YRLRY-NH2; linker I:N-II:N via Suberoyl)"
experimental_result = 0.8

[[record]]
molecule = "CCC(=O)N[C@H](CCCC[C@@H](N)C(=O)N[C@H](Cc1ccc(O)cc1)C(=O)N[C@H](CCCNC(=N)N)C(=O)N[C@H](CC(C)C)C(=O)N[C@H](CCCNC(=N)N)C(=O)N[C@H](Cc1ccc(O)cc1)C(N)=O)C(=O)N[C@@H](Cc1ccc(O)cc1)C(=O)N[C@@H](CCCNC(=N)N)C(=O)N[C@@H](CC(C)C)C(=O)N[C@@H](CCCNC(=N)N)C(=O)N[C@@H](Cc1ccc(O)cc1)C(N)=O"
experimental_result = 0.7

[[record]]
molecule = "CC(C)C[C@H](NC(=O)[C@H](CCCNC(=N)N)NC(=O)[C@H](Cc1ccc(O)cc1)NC(=O)[C@@H](N)CCCC[C@H](N)C(=O)N[C@@H](Cc1ccc(O)cc1)C(=O)N[C@@H](CCCNC(=N)N)C(=O)N[C@@H](CC(C)C)C(=O)N[C@@H](CCCNC(=N)N)C(=O)N[C@@H](Cc1ccc(O)cc1)C(N)=O)C(=O)N[C@@H](CCCNC(=N)N)C(=O)N[C@@H](Cc1ccc(O)cc1)C(N)=O"
experimental_result = 0.78

[[record]]
molecule = "CC(C)C[C@H](NC(=O)[C@H](C)NC(=O)[C@H](Cc1ccc(O)cc1)NC(=O)CCCCCCC(=O)N[C@@H](Cc1ccc(O)cc1)C(=O)N[C@@H](CCCNC(=N)N)C(=O)N[C@@H](CC(C)C)C(=O)N[C@@H](CCCNC(=N)N)C(=O)N[C@@H](Cc1ccc(O)cc1)C(N)=O)C(=O)N[C@@H](CCCNC(=N)N)C(=O)N[C@@H](Cc1ccc(O)cc1)C(N)=O (I: YALRY-NH2 / II: YRLRY-NH2; linker I:N-II:N via Suberoyl)"
experimental_result = 0.85

[[record]]
molecule = "CC(C)C[C@H](NC(=O)[C@H](CCCNC(=N)N)NC(=O)[C@H](Cc1ccc(O)cc1)NC(=O)CCCCCCC(=O)N[C@@H](Cc1ccc(O)cc1)C(=O)N[C@@H](CCCNC(=N)N)C(=O)N[C@@H](CC(C)C)C(=O)N[C@@H](CCCNC(=N)N)C(=O)N[C@@H](Cc1ccc(O)cc1)C(N)=O)C(=O)N[C@@H](C)C(=O)N[C@@H](Cc1ccc(O)cc1)C(N)=O (I: YRLAY-NH2 / II: YRLRY-NH2; linker I:N-II:N via Suberoyl)"
experimental_result = 0.85


---

# pKi measurements, system: Neuropeptide Y receptor type 5 (Homo sapiens, UniProt Q15761)
# Sequence (Q15761 whole entry): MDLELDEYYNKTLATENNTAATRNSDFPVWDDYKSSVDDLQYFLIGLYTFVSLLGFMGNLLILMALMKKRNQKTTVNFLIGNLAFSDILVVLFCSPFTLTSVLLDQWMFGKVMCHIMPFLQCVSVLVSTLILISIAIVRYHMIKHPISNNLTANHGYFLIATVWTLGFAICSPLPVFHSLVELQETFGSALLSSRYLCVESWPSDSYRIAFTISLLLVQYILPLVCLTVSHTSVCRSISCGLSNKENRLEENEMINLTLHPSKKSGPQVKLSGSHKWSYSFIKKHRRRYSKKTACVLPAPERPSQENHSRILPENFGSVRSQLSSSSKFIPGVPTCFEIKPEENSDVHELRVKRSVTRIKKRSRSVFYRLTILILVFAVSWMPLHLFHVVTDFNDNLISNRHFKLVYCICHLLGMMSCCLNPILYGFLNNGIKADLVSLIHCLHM
pKi: −log10 of the molar value. Numbered stars: 1 amine (or outer) side, 2 acyl side, 3 side chain; on linkers, the order of the positions; unused ones are H or OH. Bridge positions count the residues as written; N and C are the ends. Peptide text beside a SMILES is read from it. I, II: the chains in the order shown. Suberoyl = O=C(CCCCCCC(=O)[*:2])[*:1]
Recorded metric: pKi

[[record]]
compound = "CC(C)C[C@H](NC(=O)[C@H](C)NC(=O)[C@H](Cc1ccc(O)cc1)NC(=O)CCCCCCC(=O)N[C@@H](Cc1ccc(O)cc1)C(=O)N[C@@H](CCCNC(=N)N)C(=O)N[C@@H](CC(C)C)C(=O)N[C@@H](CCCNC(=N)N)C(=O)N[C@@H](Cc1ccc(O)cc1)C(N)=O)C(=O)N[C@@H](CCCNC(=N)N)C(=O)N[C@@H](Cc1ccc(O)cc1)C(N)=O (I: YALRY-NH2 / II: YRLRY-NH2; linker I:N-II:N via Suberoyl)"
recorded_metric = "pKi"
qualifier_sign = "="
experimental_result = 6.66

[[record]]
compound = "CC(C)C[C@H](NC(=O)[C@H](CCCNC(=N)N)NC(=O)[C@H](Cc1ccc(O)cc1)NC(=O)CCCCCCC(=O)N[C@@H](Cc1ccc(O)cc1)C(=O)N[C@@H](CCCNC(=N)N)C(=O)N[C@@H](CC(C)C)C(=O)N[C@@H](C)C(=O)N[C@@H](Cc1ccc(O)cc1)C(N)=O)C(=O)N[C@@H](C)C(=O)N[C@@H](Cc1ccc(O)cc1)C(N)=O (I: YRLAY-NH2 / II: YRLAY-NH2; linker I:N-II:N via Suberoyl)"
recorded_metric = "pKi"
qualifier_sign = "<"
experimental_result = 5.00

[[record]]
compound = "CC(C)C[C@H](NC(=O)[C@H](CCCNC(=N)N)NC(=O)[C@H](Cc1ccc(O)cc1)NC(=O)CCCCCCC(=O)N[C@@H](Cc1ccc(O)cc1)C(=O)N[C@@H](CCCNC(=N)N)C(=O)N[C@@H](CC(C)C)C(=O)N[C@@H](CCCNC(=N)N)C(=O)N[C@@H](Cc1ccc(O)cc1)C(N)=O)C(=O)N[C@@H](CCCNC(=N)N)C(=O)N[C@@H](Cc1ccc(O)cc1)C(N)=O (I: YRLRY-NH2 / II: YRLRY-NH2; linker I:N-II:N via Suberoyl)"
recorded_metric = "pKi"
qualifier_sign = "="
experimental_result = 6.55

